target: PSMA (Prostate-Specific Membrane Antigen), glutamate carboxypeptidase 2 (UniProt Q04609 1-750); test: FACS; C4-2 XCL cells
assay_endpoint: EC50 (nM)
Give just the numeric value; nM need not be written.

Look up EC50 for this binder: IAB2M γ1 EH2 (other) DIVMTQSPSSLSASVGDRVTITCKASQDVGTAVDWYQQKPGKAPKLLIYWASTRHTGVPDRFTGSGSGTDFTLTISSLQPEDFADYFCQQYNSYPLTFGGGTKLEIKGSTSGGGSGGGSGGGGSSEVQLVQSGAEVKKPGASVKISCKTSGYTFTEYTIHWVKQASGKGLEWIGNINPNNGGTTYNQKFEDRATLTVDKSTSTAYMELSSLRSEDTAVYYCAAGWNFDYWGQGTTVTVSSEPKSSDKTHTCPPCGGGSSGGGSGGQPREPQVYTLPPSRDELTKNQVSLTCLVKGFYPSDIAVEWESNGQPENNYKTTPPVLDSDGSFFLYSKLTVDKSRWQQGNVFSCSVMHEALHNHYTQKSLSLSPGK
0.26
